target-entity: T1, NPY2 receptor (human (printed as hNPY2R), UniProt P49146 1-381)
T1 sequence (looked up): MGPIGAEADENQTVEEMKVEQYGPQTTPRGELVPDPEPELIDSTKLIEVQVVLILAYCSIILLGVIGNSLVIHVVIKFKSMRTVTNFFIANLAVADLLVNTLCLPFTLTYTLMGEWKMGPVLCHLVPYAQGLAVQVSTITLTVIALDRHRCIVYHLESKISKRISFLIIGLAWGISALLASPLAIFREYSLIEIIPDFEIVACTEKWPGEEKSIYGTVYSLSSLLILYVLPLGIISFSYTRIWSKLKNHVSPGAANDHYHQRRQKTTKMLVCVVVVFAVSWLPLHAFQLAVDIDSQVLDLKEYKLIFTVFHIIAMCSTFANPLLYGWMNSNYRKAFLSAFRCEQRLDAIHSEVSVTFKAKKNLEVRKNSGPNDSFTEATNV
test-method-notes: cell-based or functional assay
Starred links: 1 amine or outer side, 2 acyl side, 3 side chain; linkers in the order of their positions; H or OH if unused. Non-standard residues stand in square brackets, D forms with d. Groups on a side chain read outwards from the residue. No end group written: not given here. *: point of attachment. C20 diacid = O=C(O)CCCCCCCCCCCCCCCCCCC(=O)*; γGlu = O=C(O)[C@H](CCC(=O)[*:2])N[*:1]; AEEA = NCCOCCOCC(=O)O; Aib = CC(C)(N)C(=O)O

binder	qualifier-sign	EC50 hNPY2R 0.5% hP (CreLuc) [nM]
Y[Aib]EGTFTSDYSI[Aib]LEKQAQ[Aib]AFVEWLIKGGPSSGVSLRHYYNWLTRQRY-NH2 (not fully specified (residue 28); also: TFA salt) [Compound 212]	=	13.5
Y[Aib]EGTFTSDYSI[Aib]LEKQAQ[Aib]AFVQWLIK([AEEA-AEEA-Glu-Glu-Glu-Glu-C20 diacid])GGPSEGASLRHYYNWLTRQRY-NH2 (also: TFA salt) [Compound 239]	=	13.6
YXEGTFTSDYSIXLEKQAQXAFVEWLIKGGPSSGASLRHYYNWLTRXRY (Aib at 2, 13, 20; bHGln (beta-homo-L-glutamine) at 47; K28 side chain carries C20DA-gGlu-gGlu-gGlu-gGlu-gGlu-gGlu-eLys; C-terminal amide) [Compound 208]	>	100
Y[Aib]EGTFTSDYSI[Aib]LEKQAQ[Aib]AFVQWLIK([AEEA-AEEA-γGlu-γGlu-γGlu-γGlu-C20 diacid])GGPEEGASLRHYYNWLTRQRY-NH2 (also: TFA salt) [Compound 193]	=	13.6
Y[Aib]EGTFTSDYSI[Aib]LEKQAE[Aib]AFVQWLIK([AEEA-AEEA-γGlu-γGlu-γGlu-γGlu-C20 diacid])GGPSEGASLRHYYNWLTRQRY-NH2 (also: TFA salt) [Compound 219]	=	12.8
